Every entry's value here was drawn from patent US10040781B2.

# target_entity: IKKε (Homo sapiens (Human))
# test: IKKε TR-FRET enzymatic assay
# Assay type: biochemical
# cond: read-out: IKKe IC50
readout: IC50 (nM)

Recorded results for 4 molecules are shown here.
C[C@H]1CN(C2COC2)CCN1c1ccc(Nc2ncnc(-c3ccc(O[C@H]4CCN(C(=O)CC#N)C[C@H]4F)c(C#N)c3)n2)cc1 [Example 250] :: 5
CC(C)n1cc(Nc2ncnc(-c3ccc(O[C@H]4CCN(C(=O)[C@H](C)O)C[C@H]4F)c(C#N)c3)n2)cn1 [Example 350] :: 5
N#Cc1cc(-c2ncnc(Nc3ccc(N4CCN(C5COC5)CC4)cc3)n2)ccc1OC1CCC(F)(F)CC1 [Example 60] :: 7
COc1cc(Nc2ncnc(-c3ccc(OC4CCOCC4)c(C#N)c3)n2)ccc1N1CCN(C(C)=O)CC1 [Example 32] :: 2

P. N#Cc1cc(-c2ncnc(Nc3ccc(N4CCO[C@@H](CO)C4)cc3)n2)ccc1OC1CCOCC1 [Example 107]
Q. N#Cc1cc(-c2ncnc(Nc3ccc(N4CCN(C5COC5)CC4)cc3)n2)ccc1OC1CCCCC1 [Example 217]
R. N#Cc1cc(-c2ncnc(Nc3ccc(N4CCN(C5COC5)CC4)cc3)n2)ccc1O[C@H]1CCCC[C@H]1N [Example 291]
I would appreciate it if you could sort these 3 molecules by IC50, starting from the smallest number. Put the labels in the order asked and list them.
P, Q, R
(P: 3 nM, Q: 14 nM, R: 603 nM)

====

# target_entity: TBK1 (Homo sapiens (Human))
# Sequence (Q9UHD2 whole entry): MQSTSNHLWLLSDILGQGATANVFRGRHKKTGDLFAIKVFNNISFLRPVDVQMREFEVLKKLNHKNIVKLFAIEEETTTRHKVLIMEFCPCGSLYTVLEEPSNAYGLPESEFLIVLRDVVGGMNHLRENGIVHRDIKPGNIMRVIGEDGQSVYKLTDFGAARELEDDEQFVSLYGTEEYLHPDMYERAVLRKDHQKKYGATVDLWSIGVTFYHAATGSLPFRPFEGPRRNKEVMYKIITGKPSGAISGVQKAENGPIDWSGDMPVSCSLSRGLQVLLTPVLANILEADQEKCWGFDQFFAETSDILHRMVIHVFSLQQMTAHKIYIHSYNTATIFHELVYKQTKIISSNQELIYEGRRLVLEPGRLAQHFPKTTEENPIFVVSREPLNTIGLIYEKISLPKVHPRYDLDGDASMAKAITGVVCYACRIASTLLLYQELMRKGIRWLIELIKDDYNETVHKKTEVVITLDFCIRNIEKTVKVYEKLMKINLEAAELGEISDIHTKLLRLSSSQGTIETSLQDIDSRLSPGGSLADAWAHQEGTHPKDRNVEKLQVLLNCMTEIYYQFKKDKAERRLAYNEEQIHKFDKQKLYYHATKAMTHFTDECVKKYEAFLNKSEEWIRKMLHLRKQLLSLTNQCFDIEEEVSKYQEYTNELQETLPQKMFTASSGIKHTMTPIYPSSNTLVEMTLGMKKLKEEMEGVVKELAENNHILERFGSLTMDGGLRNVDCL
# test: TBK1 TR-FRET enzymatic assay;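 also: phosphorylation of a biotinylated Ser/Thr peptide by purified full-length recombinant TBK1, read by TR-FRET after 240 min at 25 °C, IC50 is the geometric mean of at least four runs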
readout: IC50 (nM)

Below, 3 molecules whose answers are already recorded.
N#Cc1cc(-c2ncnc(Nc3ccc(N4CCN(C5COC5)CC4)cc3)n2)ccc1O[C@H]1CCNC[C@H]1F :: 8
C[C@H](O)CC(=O)N1CC[C@H](Oc2ccc(-c3ncnc(Nc4ccc(N5CCN(C6COC6)CC5)cc4)n3)cc2C#N)[C@H](F)C1 :: 12
C[C@H]1C[C@H](Oc2ccc(-c3ncnc(Nc4ccc(N5CCN(C6COC6)CC5)cc4)n3)cc2C#N)[C@H](F)CN1C(=O)[C@H]1CCC(=O)N1 :: 533

I. COC1CN(c2ccc(-c3ncnc(Nc4ccc(N5CCN(C6COC6)CC5)cc4)n3)cc2C#N)C1
II. C[C@H](O)C(=O)N1CCC(Oc2ccc(-c3ncnc(Nc4ccc(N5CCO[C@@H](CO)C5)cc4)n3)cc2C#N)CC1
# returns the entry with the larger IC50; inputs I and II Your answer should be the label of the entry you select.
I

====

# target_entity: IKKε (Homo sapiens (Human), UniProt Q14164)
# Sequence (Q14164 whole entry): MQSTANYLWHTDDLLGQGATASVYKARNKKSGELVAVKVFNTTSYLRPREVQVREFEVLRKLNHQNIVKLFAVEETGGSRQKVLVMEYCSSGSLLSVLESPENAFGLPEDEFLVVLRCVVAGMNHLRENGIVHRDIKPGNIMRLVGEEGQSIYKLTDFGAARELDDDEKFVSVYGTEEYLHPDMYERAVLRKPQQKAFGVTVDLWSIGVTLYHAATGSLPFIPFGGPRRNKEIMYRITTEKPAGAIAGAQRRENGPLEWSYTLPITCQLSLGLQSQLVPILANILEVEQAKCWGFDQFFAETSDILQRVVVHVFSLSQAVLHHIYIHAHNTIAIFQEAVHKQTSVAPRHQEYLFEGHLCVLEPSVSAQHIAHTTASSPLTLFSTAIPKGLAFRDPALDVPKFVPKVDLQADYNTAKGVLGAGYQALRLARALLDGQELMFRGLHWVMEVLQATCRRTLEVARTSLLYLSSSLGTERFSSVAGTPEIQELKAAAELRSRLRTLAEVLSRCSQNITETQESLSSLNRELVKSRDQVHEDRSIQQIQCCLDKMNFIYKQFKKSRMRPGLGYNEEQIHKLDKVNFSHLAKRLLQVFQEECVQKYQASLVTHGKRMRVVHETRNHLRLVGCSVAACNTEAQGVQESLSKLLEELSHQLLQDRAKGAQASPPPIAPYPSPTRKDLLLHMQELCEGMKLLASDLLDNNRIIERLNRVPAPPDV
# test: IKKε TR-FRET enzymatic assay
# Type: biochemical
# cond: TR-FRET, 2×Km ATP; geometric mean of minimum four determinations; read-out: IKKe IC50
pIC50: −log10 of the molar value.
readout: pIC50

COc1cc(Nc2ncnc(-c3ccc(O[C@H]4CCN(C(=O)CO)CC4(F)F)c(C#N)c3)n2)ccc1N1CCN(C2COC2)CC1 :: 9.00

a. Cc1cc(Nc2ncnc(-c3ccc(O[C@H]4CCN(C(=O)[C@H](C)O)C[C@H]4F)c(C#N)c3)n2)ccc1C1CCN(C=O)CC1
b. CS(=O)(=O)CC(=O)N1CC[C@H](Oc2ccc(-c3ncnc(Nc4ccc(N5CCN(C6COC6)CC5)cc4)n3)cc2C#N)[C@H](F)C1
Decide: a or b , by lowest recorded pIC50. Choose, then provide that item's label.
b
(b: 7.96, a: 9.00)
